All figures here come from patent US20240360242A1.

Each record here notes measured EC50% to KD005.
Target Of Assay: T1, recombinant human TROP2 extracellular domain (aa 1-274) comprising His tag (human, UniProt P09758 27-274)
T1 construct: Used here for all assays on recombinant human TROP2 (ELISA, immunoblot, SPR, crystal), although only some of them name the catalogue number; also called human recombinant TROP2; recombinant human TROP2 protein; not shown: His tag
T1 sequence: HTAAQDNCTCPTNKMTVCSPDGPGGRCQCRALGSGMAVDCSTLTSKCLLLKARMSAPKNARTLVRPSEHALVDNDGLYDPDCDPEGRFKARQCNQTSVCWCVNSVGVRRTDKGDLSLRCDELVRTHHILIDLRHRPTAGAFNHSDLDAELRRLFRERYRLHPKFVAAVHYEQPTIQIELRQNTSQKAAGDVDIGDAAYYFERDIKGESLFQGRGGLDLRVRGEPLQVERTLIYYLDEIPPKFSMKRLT
Test Method Notes: ELISA, coated rh TROP2
Measured Attribute: EC50% to KD005

1) KD047 (antibody, V domains shown, KD005 humanized variant) VH: QVQLLESGGGLVQPGGSLRLSCAASGFTFSGSDMSWVRQAPGKGPEWVSYITSGGTTYYADTVKGRFTISRDNSKNTLYLQMNSLRAEDTAVYRCAKSRLTDSHYVEDAWGQGTLVTVSS
1.75 ratio to KD005
2) KD002 (antibody, human IgG1, V domains shown, also called anti-TROP2 sdAb KD002) VH: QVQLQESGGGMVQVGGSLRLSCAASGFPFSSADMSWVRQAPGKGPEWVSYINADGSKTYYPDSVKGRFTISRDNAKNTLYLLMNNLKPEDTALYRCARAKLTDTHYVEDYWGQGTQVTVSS
0.688 ratio to KD005
3) KD049 (antibody, V domains shown, KD005 humanized variant) VH: QVQLQESGGGLVQPGGSLRLSCAASGFTFSGSDMSWVRQAPGKGPEWVSYITSGGTTYYPDTVKGRFTISRDNSKNTLYLQMNSLRAEDTAVYRCAKSRLTDSHYVEDAWGQGTQVTVSS
1.75 ratio to KD005
4) KD055 (antibody, V domains shown, KD005 humanized variant) VH: EVQLQESGGGLIQPGGSLRLSCAASGFTFSGSDMSWVRQAPGKGLEWVSYITSGGTTYYADTVKGRFTISRDNSKNTLYLQMNSLRAEDTAVYRCAKSRLTDSHYVEDAWGQGTLVTVSS
1 ratio to KD005
